# assay.target: Sodium channel protein type 3 subunit alpha (Homo sapiens, UniProt Q9NY46)
# Sequence (Q9NY46 whole entry): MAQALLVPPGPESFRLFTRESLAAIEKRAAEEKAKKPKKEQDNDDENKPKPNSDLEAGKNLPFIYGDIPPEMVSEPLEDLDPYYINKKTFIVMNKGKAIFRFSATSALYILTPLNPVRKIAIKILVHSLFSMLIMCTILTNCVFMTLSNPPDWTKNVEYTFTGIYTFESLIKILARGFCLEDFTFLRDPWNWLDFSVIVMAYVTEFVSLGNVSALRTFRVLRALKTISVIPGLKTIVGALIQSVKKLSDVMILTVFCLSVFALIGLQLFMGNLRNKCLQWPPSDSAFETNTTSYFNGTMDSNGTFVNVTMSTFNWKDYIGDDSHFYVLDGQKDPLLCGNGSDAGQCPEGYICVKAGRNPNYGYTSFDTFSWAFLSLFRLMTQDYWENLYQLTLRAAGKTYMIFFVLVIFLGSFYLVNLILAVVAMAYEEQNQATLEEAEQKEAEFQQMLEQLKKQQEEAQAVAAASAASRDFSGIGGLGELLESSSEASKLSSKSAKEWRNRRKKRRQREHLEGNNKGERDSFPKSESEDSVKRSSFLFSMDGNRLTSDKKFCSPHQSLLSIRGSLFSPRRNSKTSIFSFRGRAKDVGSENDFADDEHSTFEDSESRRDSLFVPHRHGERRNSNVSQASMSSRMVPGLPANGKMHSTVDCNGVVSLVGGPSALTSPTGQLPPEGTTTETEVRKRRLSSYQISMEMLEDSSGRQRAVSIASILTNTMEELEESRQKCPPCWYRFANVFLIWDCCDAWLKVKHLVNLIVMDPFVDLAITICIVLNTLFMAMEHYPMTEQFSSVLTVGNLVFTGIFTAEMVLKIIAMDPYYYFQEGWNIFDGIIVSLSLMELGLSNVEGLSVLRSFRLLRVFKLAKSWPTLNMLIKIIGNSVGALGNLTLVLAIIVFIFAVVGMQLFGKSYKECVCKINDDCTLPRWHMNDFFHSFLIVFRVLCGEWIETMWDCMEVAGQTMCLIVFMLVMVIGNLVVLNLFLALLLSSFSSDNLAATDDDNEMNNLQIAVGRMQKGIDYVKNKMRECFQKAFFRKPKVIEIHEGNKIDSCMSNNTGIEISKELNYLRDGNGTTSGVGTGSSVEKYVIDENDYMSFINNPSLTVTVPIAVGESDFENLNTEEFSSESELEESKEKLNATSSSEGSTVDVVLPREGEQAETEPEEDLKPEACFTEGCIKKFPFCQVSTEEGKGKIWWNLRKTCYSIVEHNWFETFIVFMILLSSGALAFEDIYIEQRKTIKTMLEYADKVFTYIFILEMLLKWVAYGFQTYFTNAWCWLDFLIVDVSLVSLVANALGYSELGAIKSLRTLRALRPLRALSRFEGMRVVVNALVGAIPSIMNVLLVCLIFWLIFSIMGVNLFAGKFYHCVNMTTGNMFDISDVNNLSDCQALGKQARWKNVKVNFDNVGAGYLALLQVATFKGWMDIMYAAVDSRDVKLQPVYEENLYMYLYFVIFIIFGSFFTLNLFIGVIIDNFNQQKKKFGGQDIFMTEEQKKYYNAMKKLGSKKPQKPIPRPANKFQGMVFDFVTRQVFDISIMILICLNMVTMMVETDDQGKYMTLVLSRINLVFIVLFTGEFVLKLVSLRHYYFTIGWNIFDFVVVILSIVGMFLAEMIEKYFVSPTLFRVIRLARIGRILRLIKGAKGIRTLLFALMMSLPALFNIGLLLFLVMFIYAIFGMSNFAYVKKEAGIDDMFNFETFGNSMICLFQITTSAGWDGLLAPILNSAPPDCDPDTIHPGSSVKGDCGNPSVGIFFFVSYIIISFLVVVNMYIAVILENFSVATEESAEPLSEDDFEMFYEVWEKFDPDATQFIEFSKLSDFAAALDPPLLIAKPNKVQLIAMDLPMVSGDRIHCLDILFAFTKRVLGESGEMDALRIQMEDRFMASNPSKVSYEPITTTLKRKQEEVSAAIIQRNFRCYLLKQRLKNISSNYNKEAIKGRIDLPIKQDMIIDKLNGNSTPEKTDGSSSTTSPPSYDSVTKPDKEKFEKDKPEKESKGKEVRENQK
# assay.protocol: Inhibition of human Nav1.3 expressed in CHO cells under resting state by automated patch clamp electrophysiology analysis
# Type: cell-based
# setup.conditions: cho
quantity: pIC50
Friendly reminder that pIC50 comes from taking -log10 of the concentration in mol/L.

Entry O=C(Nc1ccc(S(=O)(=O)Nc2nccs2)cc1)[C@@H]1C[C@H]1c1ccccc1 , pIC50 reported as 4.74

---

# assay.target: Sodium channel protein type 5 subunit alpha (Homo sapiens, UniProt Q14524)
# Sequence (Q14524 whole entry): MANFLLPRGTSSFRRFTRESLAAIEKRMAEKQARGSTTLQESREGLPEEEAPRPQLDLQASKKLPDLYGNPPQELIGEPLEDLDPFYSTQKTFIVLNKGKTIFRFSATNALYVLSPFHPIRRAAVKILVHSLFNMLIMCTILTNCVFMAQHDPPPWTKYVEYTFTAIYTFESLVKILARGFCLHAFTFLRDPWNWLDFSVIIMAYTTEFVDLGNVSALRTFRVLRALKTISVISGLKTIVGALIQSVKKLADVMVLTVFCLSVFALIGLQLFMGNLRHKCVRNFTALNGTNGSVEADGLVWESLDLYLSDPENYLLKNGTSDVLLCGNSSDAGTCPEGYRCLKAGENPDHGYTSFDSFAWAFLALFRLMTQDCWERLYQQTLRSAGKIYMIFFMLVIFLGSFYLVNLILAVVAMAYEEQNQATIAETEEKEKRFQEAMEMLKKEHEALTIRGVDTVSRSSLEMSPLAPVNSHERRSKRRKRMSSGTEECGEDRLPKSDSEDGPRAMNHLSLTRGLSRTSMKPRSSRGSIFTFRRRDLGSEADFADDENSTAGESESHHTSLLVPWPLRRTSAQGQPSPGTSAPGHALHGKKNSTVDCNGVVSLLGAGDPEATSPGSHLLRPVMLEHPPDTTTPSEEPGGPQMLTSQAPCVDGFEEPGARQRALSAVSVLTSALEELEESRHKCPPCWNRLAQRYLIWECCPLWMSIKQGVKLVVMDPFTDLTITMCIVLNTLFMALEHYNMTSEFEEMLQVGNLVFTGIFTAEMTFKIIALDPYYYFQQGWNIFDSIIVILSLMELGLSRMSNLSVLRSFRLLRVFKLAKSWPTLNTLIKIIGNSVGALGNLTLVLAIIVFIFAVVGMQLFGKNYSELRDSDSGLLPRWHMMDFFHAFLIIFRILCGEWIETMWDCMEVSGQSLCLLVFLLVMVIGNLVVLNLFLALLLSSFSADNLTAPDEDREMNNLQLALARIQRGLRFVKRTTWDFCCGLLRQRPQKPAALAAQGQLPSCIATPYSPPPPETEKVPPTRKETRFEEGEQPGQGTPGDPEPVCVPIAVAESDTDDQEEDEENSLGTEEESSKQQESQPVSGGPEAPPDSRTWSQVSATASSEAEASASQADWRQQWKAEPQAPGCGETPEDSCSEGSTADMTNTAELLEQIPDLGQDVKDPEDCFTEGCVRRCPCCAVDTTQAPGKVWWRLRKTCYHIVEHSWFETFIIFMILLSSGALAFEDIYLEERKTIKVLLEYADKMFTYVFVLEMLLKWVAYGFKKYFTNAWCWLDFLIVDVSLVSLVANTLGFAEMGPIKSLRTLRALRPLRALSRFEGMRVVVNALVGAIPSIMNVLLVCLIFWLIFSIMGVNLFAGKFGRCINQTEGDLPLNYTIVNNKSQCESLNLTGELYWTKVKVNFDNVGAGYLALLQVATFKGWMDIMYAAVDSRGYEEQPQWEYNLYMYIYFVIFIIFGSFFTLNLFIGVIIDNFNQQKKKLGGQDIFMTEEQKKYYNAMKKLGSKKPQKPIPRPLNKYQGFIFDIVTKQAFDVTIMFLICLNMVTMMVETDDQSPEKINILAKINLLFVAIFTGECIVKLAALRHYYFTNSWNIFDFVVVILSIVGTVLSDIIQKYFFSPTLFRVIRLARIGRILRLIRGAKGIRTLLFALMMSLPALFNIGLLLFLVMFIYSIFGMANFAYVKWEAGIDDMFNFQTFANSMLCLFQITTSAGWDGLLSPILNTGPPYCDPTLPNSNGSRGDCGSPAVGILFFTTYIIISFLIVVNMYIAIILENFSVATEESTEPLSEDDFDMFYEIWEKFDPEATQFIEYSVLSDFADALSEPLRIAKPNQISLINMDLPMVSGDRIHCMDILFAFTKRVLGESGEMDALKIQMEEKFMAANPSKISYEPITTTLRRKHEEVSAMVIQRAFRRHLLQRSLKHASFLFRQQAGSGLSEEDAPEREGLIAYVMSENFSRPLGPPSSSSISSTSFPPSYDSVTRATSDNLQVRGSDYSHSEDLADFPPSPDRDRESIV
# assay.protocol: Inhibition of human Nav1.5 expressed in CHO cells under resting state by automated patch clamp electrophysiology analysis
# Format: cell-based
Let's look at some compounds and their measured IC50.

Answered examples (5):
O=C(Nc1ccc(S(=O)(=O)Nc2nccs2)cc1)C1CC1c1ccc(F)c(F)c1 (racemic): > 30 µM
O=C(Nc1ccc(S(=O)(=O)Nc2nccs2)cc1)c1cc(Br)c(Br)n1Cc1ccccc1: > 30 µM
CN(C)CCC=C1c2ccccc2CCc2ccccc21 [AMITRIPTYLINE]: 20 µM
O=C(Nc1ccc(S(=O)(=O)Nc2nccs2)cc1)c1cc(Br)c(Br)n1-c1ccccc1: > 30 µM
O=C(Nc1nccs1)c1ccc(NC(=O)[C@@H]2C[C@H]2c2ccccc2)cc1: > 30 µM

Record O=C(Nc1ccc(S(=O)(=O)Nc2nccs2)cc1)c1cccn1Cc1ccc(Cl)cc1 has Sodium channel protein type 5 subunit alpha (Homo sapiens, UniProt Q14524) IC50 equal to > 30 µM
